- assayDetails: fission yeast growth modulation, primary screen, strain 972, OD600, 24 h, no modulator (AID 1090);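 note: basal condition with compound alone and no growth modifier present; test concentration not given here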
- experimentalParameters: S. pombe 972 growth, called active from +8 up or from −8 down
Activity calls are given as the source filed them.
Outcome codes: active, inactive

- compound: "CC(CO)N1C(=O)[C@@H]2C3C(=O)OCCC/C=C\\[C@H]3OC23C=CCN(Cc2ccccc2)C(=O)[C@@H]13 (stereo partly drawn)"
  categoryLabel: "inactive"
- compound: "Cc1ccc(N2C(=O)c3ccccc3[C@](C)(C(=O)NCC(F)(F)F)[C@@H]2c2ccc(CO)cc2)nc1"
  categoryLabel: "inactive"
- compound: "COc1ccc(CCNC(=O)[C@@]2(Sc3ccc(C)cc3)CC(=O)N(Cc3ccccc3)[C@@H]2c2ccc(CO)cc2I)cc1"
  categoryLabel: "inactive"
- compound: "C=CCC(OC(C)=O)[C@@H]1[C@@H](N(Cc2ccc(-c3cccc(C(F)(F)F)c3)o2)C(=O)c2ccc(-c3ccccc3)cc2)c2cc(OCCCO)ccc2N1C(=O)Cc1ccc(OC)cc1 (stereo partly drawn)"
  categoryLabel: "inactive"
- compound: "NC(=O)NCC#Cc1ccc2c(c1)[C@]1(C(=O)N2)[C@H](c2ccc(OCCO)cc2)N2[C@H](c3ccccc3)[C@H](c3ccccc3)OC(=O)[C@H]2[C@@H]1C(=O)Nc1nc2ccccc2s1"
  categoryLabel: "inactive"
- compound: "CC(C)(C)OC(=O)CC[C@]1(C(=O)NCc2ccccc2)N=C(c2ccc(OCCCO)cc2)O[C@H]1c1ccccc1N=[N+]=[N-]"
  categoryLabel: "inactive"
- compound: "CCCCCN1CC=CC23O[C@@H]4/C=C\\CCC(C)OC(=O)C4[C@H]2C(=O)N(CCCO)[C@@H]3C1=O (stereo partly drawn)"
  categoryLabel: "inactive"
- compound: "COc1ccc([Si](C)(C)[C@@H]2[C@@H](CC(=O)N3CCC[C@H]3CO)O[C@]3(C(=O)N(Cc4ccc(N5CCC5=O)cc4)c4ccccc43)[C@H]2C)cc1"
  categoryLabel: "inactive"
- compound: "CO[C@H]1O[C@H](CO)[C@@H](OC(=O)Nc2ccccc2)[C@H](OC(=O)Nc2ccccc2-c2ccccc2)[C@H]1OC(=O)Nc1ccccc1-c1ccccc1"
  categoryLabel: "inactive"
- compound: "O=C(O)[C@H]1C[C@H]2C(=O)N[C@@H](Cc3ccccc3)C(=O)N2[C@H]1c1ccc(O)cc1"
  categoryLabel: "inactive"
- compound: "CC(C)C[C@@H]1NC(=O)[C@H]2C[C@@H](C(=O)NCCCC[N+](C)(C)C)[C@@H](c3cccc(OCCO)c3)N2C1=O"
  categoryLabel: "inactive"
- compound: "CC(C)C[C@@H]1NC(=O)[C@@]23C(=O)N[C@@H](Cc4ccccc4)C2[C@H](C)[C@@]2(C)O[C@H]2C3/C=C/C/C=C\\CNC(=O)[C@H](Cc2ccccc2)NC1=O (stereo partly drawn)"
  categoryLabel: "active"
- compound: "NCCCCCNC(=O)[C@H]1C[C@H]2C(=O)NCC(=O)N2[C@H]1c1ccc(O)cc1"
  categoryLabel: "inactive"
- compound: "C=CCNC(=O)[C@H]1[C@@H]2C(=O)O[C@@H](c3ccccc3)[C@@H](c3ccccc3)N2[C@@H](c2ccc(OCCO)cc2)[C@]12C(=O)Nc1ccc(C#CCCO)cc12"
  categoryLabel: "inactive"
- compound: "C=CCNC(=O)[C@@H]1[C@H]2C(=O)O[C@H](c3ccccc3)[C@H](c3ccccc3)N2[C@H](c2ccc(O)cc2)[C@@]12C(=O)Nc1ccccc12"
  categoryLabel: "inactive"
- compound: "C=C[C@H](OC)[C@@H](OC(=O)Nc1ccc(OC)cc1)c1ccc(OC)c(O)c1"
  categoryLabel: "inactive"
- compound: "C=C1C=C(Br)C2(OCCCO2)[C@H]2OC12 (stereo partly drawn)"
  categoryLabel: "inactive"
- compound: "CC(C)CNC(=O)[C@@H]1c2ccccc2C(=O)N(Cc2ccc(OC(F)(F)F)cc2)[C@H]1c1ccc(CO)cc1"
  categoryLabel: "inactive"
- compound: "COc1c(C)cc(-c2cc3c(c(CCc4ccccc4)n2)[Si](C(C)C)(C(C)C)OC3)cc1C"
  categoryLabel: "inactive"
- compound: "COC(=O)C1=CC(CCCO)=CC(C2CC2)N(Cc2cc3c(cc2Br)OCO3)C=C1C(=O)OC (stereo not drawn)"
  categoryLabel: "inactive"
- compound: "CCOC(=O)C[C@H]1[C@H](OC(=O)c2cc3ccccc3oc2=O)[C@@H](NC(=O)c2ccccc2)c2cc(OCCCO)ccc2N1C(=O)Cc1ccc(OC)cc1"
  categoryLabel: "inactive"
- compound: "COc1ccc([Si](C)(C)[C@H]2[C@H](CC(=O)N(CCO)Cc3ccccc3)O[C@@]3(C(=O)N(Cc4ccc(N5CCC5=O)cc4)c4ccccc43)[C@@H]2C)cc1"
  categoryLabel: "inactive"
- compound: "O=C(N1CCCCC1)[C@@]1(Cc2ccccc2)N=C(c2ccc(OCCCO)cc2)O[C@H]1c1ccccc1"
  categoryLabel: "inactive"
- compound: "C=CCN1C(=O)[C@@]2(O[C@@H](CCO)[C@H]([Si](C)(C)c3ccc(OC)cc3)[C@H]2C)c2cc(N(C=O)c3ccccc3)ccc21"
  categoryLabel: "inactive"
- compound: "C[N+](C)(C)CCCC[C@@H]1NC(=O)[C@H]2C[C@@H](C(=O)NCCCCCN)[C@@H](c3cccc(OCCO)c3)N2C1=O"
  categoryLabel: "inactive"
- compound: "CC(C)C(=C=CC[C@@H](O)c1ccc(CO)o1)CCO"
  categoryLabel: "inactive"
- compound: "C=CCN1C(=O)[C@@]2(O[C@@H](CCn3cc(CCO)nn3)[C@H]([Si](C)(C)c3ccc(OC)cc3)[C@H]2C)c2cc(NC(=O)c3ccc(OC)cc3)ccc21"
  categoryLabel: "inactive"
- compound: "COCCOC(=O)N1C(=O)[C@@]2(c3cc(C#CCNC(N)=O)ccc31)[C@H](c1ccccc1OCCO)N1[C@H](c3ccccc3)[C@H](c3ccccc3)OC(=O)[C@H]1[C@@H]2C(=O)Nc1nc2ccccc2s1"
  categoryLabel: "inactive"
